test: total protein half-life in vivo (active degradation + dilution); higher = more stable protein; conditions: wild type E. coli NCM3722; growth: P-lim chemostat; doubling time 12 h
assay.metric: total protein half-life in vivo (h)
Hi! Could you send only the number? It should be in h, unit omitted.

Some sequences with known total protein half-life in vivo results, for comparison:
| sequence.input | total protein half-life in vivo, h |
| --- | --- |
| MRVLGIETSCDETGIAIYDDEKGLLANQLYSQVKLHADYGGVVPELASRDHVRKTVPLIQAALKESGLTAKDIDAVAYTAGPGLVGALLVGATVGRSLAFAWDVPAIPVHHMEGHLLAPMLEDNPPEFPFVALLVSGGHTQLISVTGIGQYELLGESIDDAAGEAFDKTAKLLGLDYPGGPLLSKMAAQGTAGRFVFPRPMTDRPGLDFSFSGLKTFAANTIRDNGTDDQTRADIARAFEDAVVDTLMIKCKRALDQTGFKRLVMAGGVSANRTLRAKLAEMMKKRRGEVFYARPEFCTDNGAMIAYAGMVRFKAGATADLGVSVRPRWPLAELPAA | 8.07 |
| MNKTQLIDVIAEKAELSKTQAKAALESTLAAITESLKEGDAVQLVGFGTFKVNHRAERTGRNPQTGKEIKIAAANVPAFVSGKALKDAVK [P0ACF0] | 11.1 |

Alright, here's another sequence for you.
*Q* Report total protein half-life in vivo for MKILVIGPSWVGDMMMSQSLYRTLQARYPQAIIDVMAPAWCRPLLSRMPEVNEAIPMPLGHGALEIGERRKLGHSLREKRYDRAYVLPNSFKSALVPFFAGIPHRTGWRGEMRYGLLNDVRVLDKEAWPLMVERYIALAYDKGIMRTAQDLPQPLLWPQLQVSEGEKSYTCNQFSLSSERPMIGFCPGAEFGPAKRWPHYHYAELAKQLIDEGYQVVLFGSAKDHEAGNEILAALNTEQQAWCRNLAGETQLDQAVILIAACKAIVTNDSGLMHVAAALNRPLVALYGPSSPDFTPPLSHKARVIRLITGYHKVRKGDAAEGYHQSLIDITPQRVLEELNALLLQEEA please.
*A* 11.7
